- assay.notes: Thermostability, ProteoStat Thermal Shift Stability Kit, temperature of aggregation
- Format: physicochemical
- condition.parameters: pH 7.1; heated 25° C. to 95° C.; NS = protein not soluble
recorded.endpoint: Tagg (pH 7.1)
// return just the number, without any unit appended

Request: Using the record for SEQID-00502: protein of the 168 nutritive polypeptide library (protein, Glycine max, protein of the 168 nutritive polypeptide library) MASQSNTKSVHDFTVKDARGNNVNLADYKGKVLLIVNVASQCGLTNSNYTELNQLYEKYKGKGLEILAFPCNQFGAQEPGTNEEIVEFACTRFKAEFPIFDKVDVNGDNAAPLYKFLKSSKGGLFGDSIKWNFSKFLVDKDGNVVDRYAPTTSPLSIEKDIKKLLDA , report its Tagg (pH 7.1).
Result: 95
